# target: T1, human PD-1 expressed on CHO cells (human, UniProt Q15116 25-288)
# T1 construct: also called hPD-1; CHO-hPD-1
# experiment.summary: hPD-1 binding titration (format not named; taken as cell binding)
attribute.measured: pKd
Interpret pKd as the negative base-10 log of the concentration measured in mol/L.

Consider the binder 1353-G10 H1 HC IgG (antibody, V domains shown, IgG; also called Sample J) VH: EVQLVQSGAEVKKPGASVKVSCKASGYTFDSYGISWVRQAPGQGLEWMGWISAYNGNTNYAQKLQGRVTMTTDTSTNTAYMELRSLRSDDTAVYYCARDVDYGTGSGYWGQGTLVTVSS VL: SYELTQPPSVSVSPGQTARITCSGDALPKQYAYWYQQKPGQAPVMVIYKDTERPSGIPERFSGSSSGTKVTLTISGVQAEDEADYYCQSADNSITYRVFGGGTKVTVL and give its measured pKd.
9.30
